Cited source: ChEMBL document CHEMBL1201862

I'd be grateful if you could share measured GI50 for these entries.
Tested on: A549
Test: NCI tumour cell line growth inhibition, 48 h
Active and inactive are the calls of the source. Cut-off read from the data, not from the text of the source: active = GI50 up to about 1.1 µM and inactive = higher.

Give me measured GI50, please, for this molecule: "CCOc1ccc(Nc2nc(N)nc(N)c2N)cc1"
45.2 µM (inactive)

// fetch GI50 given entry "Oc1ccc(Nc2nc(Cl)c3nc[nH]c3n2)cc1"
> 100 µM (inactive)

Tell me GI50 reported for "O=C1c2ccccc2C2=Nc3ccncc3CN12"
> 100 µM (inactive)

Look up and state reported GI50 for CC(O)(c1ccc(OCCC[N+](C)(C)C)cc1)C(C)(O)c1ccc(OCCC[N+](C)(C)C)cc1 (stereo unspecified)
> 100 µM (inactive)

Provide GI50 value for the following molecule: "COc1ccc(C)cc1Nc1nnc(-c2ccc(N)cc2)s1"
7.53 µM (inactive)

As a next step, examine the molecule that follows.
Quote GI50 reported for COc1c(O)cc2c(c1O)C(=O)C(Cc1ccc(O)cc1)CO2 (stereo unspecified) please.
> 100 µM (inactive)
